molecular target: NIM1K (Homo sapiens); construct: purchased Carna Biosciences; test: Kinase panel profiling at 1 µmol/L (mobility shift assay, Carna); format: biochemical; settings: 1 µmol/L of BTK inhibitor
Sequence (Q8IY84 whole entry): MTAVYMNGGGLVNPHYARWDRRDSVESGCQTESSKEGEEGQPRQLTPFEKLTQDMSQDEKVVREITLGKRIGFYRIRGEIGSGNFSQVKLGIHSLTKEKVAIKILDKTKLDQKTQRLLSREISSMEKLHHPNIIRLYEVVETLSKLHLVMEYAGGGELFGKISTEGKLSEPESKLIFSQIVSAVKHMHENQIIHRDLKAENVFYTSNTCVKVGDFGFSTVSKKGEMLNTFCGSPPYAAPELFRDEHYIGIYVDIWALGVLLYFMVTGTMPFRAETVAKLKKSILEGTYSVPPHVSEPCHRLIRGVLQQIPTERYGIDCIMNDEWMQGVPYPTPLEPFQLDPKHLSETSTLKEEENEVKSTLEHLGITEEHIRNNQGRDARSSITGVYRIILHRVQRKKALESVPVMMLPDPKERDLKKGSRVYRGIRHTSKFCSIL
quantityName: Percentage inhibition of kinase enzyme activity (%)
Express your answer in %, writing the number without its unit.

These solved cases illustrate the format of a correct answer.
COc1ccc(F)cc1C(=O)NCc1ccc(-c2nn([C@@H](C)C(F)(F)F)c(N)c2C(N)=O)cc1 [pirtobrutinib]: -1.08
O=C(c1ccc(Oc2ccccc2)cc1Cl)c1c[nH]c2ncnc(N[C@@H]3CC[C@@H](CO)OC3)c12 [nemtabrutinib]: -2.21

Fill in reported Percentage inhibition of kinase enzyme activity for this entry: CC#CC(=O)N1CCC[C@H]1c1nc(-c2ccc(C(=O)Nc3ccccn3)cc2)c2c(N)nccn12 [acalabrutinib]
-7.33

Fill in reported Percentage inhibition of kinase enzyme activity for this entry: C=CC(=O)N1CCC[C@@H](n2nc(-c3ccc(Oc4ccccc4)cc3)c3c(N)ncnc32)C1 [ibrutinib]
-2.33

====

target: BRK (Homo sapiens); experiment: Kinase panel profiling at 1 µmol/L (mobility shift assay, Carna); conditions: BRK; 1 µmol/L of BTK inhibitor
Sequence (Q13882 whole entry): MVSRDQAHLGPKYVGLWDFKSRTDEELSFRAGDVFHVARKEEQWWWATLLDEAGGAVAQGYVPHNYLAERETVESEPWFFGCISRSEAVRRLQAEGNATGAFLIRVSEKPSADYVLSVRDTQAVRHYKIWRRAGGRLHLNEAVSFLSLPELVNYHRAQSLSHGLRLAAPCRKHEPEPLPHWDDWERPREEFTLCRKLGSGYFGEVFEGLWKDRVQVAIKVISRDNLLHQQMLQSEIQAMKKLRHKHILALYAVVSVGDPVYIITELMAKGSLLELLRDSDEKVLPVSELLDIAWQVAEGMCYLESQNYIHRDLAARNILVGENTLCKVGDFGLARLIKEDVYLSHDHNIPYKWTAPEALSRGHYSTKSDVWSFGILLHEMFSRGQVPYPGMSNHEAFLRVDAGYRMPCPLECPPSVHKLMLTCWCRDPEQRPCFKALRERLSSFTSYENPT
quantityName: Percentage inhibition of kinase enzyme activity

These solved cases illustrate the format of a correct answer.
C=CC(=O)N1CCC([C@@H]2CCNc3c(C(N)=O)c(-c4ccc(Oc5ccccc5)cc4)nn32)CC1 [zanubrutinib]: 98.97%
COc1ccc(F)cc1C(=O)NCc1ccc(-c2nn([C@@H](C)C(F)(F)F)c(N)c2C(N)=O)cc1 [pirtobrutinib]: 89.81%
C=CC(=O)N1CCC[C@@H](n2nc(-c3ccc(Oc4ccccc4)cc3)c3c(N)ncnc32)C1 [ibrutinib]: 102.78%

Please report Percentage inhibition of kinase enzyme activity with BRK (Homo sapiens) for item CC#CC(=O)N1CCC[C@H]1c1nc(-c2ccc(C(=O)Nc3ccccn3)cc2)c2c(N)nccn12 [acalabrutinib] .
51.05%

====

molecular target: PKD1 (Homo sapiens, UniProt Q15139); construct: purchased Carna Biosciences; experiment: Kinase panel profiling at 1 µmol/L (mobility shift assay, Carna); format: biochemical; settings: 1 µmol/L of BTK inhibitor
Sequence (Q15139 whole entry): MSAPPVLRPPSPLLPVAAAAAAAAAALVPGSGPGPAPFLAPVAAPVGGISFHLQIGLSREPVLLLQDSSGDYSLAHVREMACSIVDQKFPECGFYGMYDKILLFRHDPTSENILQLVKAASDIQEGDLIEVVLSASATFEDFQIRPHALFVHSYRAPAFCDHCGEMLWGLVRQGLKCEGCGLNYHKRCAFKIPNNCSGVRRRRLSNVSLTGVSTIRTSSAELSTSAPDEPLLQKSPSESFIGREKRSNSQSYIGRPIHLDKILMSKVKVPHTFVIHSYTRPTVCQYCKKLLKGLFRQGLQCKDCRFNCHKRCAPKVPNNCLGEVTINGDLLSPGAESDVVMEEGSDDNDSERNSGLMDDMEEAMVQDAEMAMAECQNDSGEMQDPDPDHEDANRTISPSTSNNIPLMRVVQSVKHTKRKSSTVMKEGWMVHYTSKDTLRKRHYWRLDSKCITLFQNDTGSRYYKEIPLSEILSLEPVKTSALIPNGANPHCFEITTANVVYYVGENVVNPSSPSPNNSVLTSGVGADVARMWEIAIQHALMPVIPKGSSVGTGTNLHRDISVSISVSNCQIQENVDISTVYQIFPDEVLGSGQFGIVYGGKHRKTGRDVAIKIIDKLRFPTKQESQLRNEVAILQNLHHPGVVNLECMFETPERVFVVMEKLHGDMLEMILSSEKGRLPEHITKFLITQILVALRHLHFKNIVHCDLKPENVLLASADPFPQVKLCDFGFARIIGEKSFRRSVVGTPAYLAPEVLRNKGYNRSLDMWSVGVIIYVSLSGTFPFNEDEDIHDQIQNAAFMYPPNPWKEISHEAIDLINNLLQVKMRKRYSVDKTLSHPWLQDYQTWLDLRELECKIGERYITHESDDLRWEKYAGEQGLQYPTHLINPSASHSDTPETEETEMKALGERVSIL
Percentage inhibition of kinase enzyme activity values for the compounds below.
Express your answer in %, writing the number without its unit.

CC#CC(=O)N1CCC[C@H]1c1nc(-c2ccc(C(=O)Nc3ccccn3)cc2)c2c(N)nccn12 [acalabrutinib]: -9.48
COc1ccc(F)cc1C(=O)NCc1ccc(-c2nn([C@@H](C)C(F)(F)F)c(N)c2C(N)=O)cc1 [pirtobrutinib]: 4.89
C=CC(=O)N1CCC[C@@H](n2nc(-c3ccc(Oc4ccccc4)cc3)c3c(N)ncnc32)C1 [ibrutinib]: 3.22

Here's the next entry for you.
Fill in reported Percentage inhibition of kinase enzyme activity for this entry: O=C(c1ccc(Oc2ccccc2)cc1Cl)c1c[nH]c2ncnc(N[C@@H]3CC[C@@H](CO)OC3)c12 [nemtabrutinib]
7.45

====

Tested on: T24
Experiment: Cell viability assay (ATPlite)
Format: cell-based
Settings: Homo sapiens, T-24; T24 cell line, 72 hours incubation
Description: Intracellular ATP content was used as an indirect readout of cell number using the ATPlite 1Step bioluminescence assay (Revvity, Groningen, the Netherlands). […] After 24 hours of incubation, the starting cell number was determined by adding ATPlite to each well of a control plate and recording luminescence on an Envision multimode reader (Revvity, Waltham, MA, USA) ([4]). […] After incubation for an additional 72 hours, the ATP content was measured in each well using ATPlite. […]
quantityName: IC50 (µM)
Express your answer in µM, writing the number without its unit.

Please report IC50 with T24 for item O=C(c1ccc(Oc2ccccc2)cc1Cl)c1c[nH]c2ncnc(N[C@@H]3CC[C@@H](CO)OC3)c12 .
2.79

====

molecular target: CDK7/CycH/MAT1 (Homo sapiens, UniProt P50613); construct: purchased Carna Biosciences; assay: Kinase panel profiling at 1 µmol/L (mobility shift assay, Carna); format: biochemical; settings: 1 µmol/L of BTK inhibitor
quantityName: Percentage inhibition of kinase enzyme activity (%)
Express your answer in %, writing the number without its unit.

These solved cases illustrate the format of a correct answer.
COc1ccc(F)cc1C(=O)NCc1ccc(-c2nn([C@@H](C)C(F)(F)F)c(N)c2C(N)=O)cc1 [pirtobrutinib]: -4.77
C=CC(=O)N1CCC[C@@H](n2nc(-c3ccc(Oc4ccccc4)cc3)c3c(N)ncnc32)C1 [ibrutinib]: 4.94
O=C(c1ccc(Oc2ccccc2)cc1Cl)c1c[nH]c2ncnc(N[C@@H]3CC[C@@H](CO)OC3)c12 [nemtabrutinib]: -12.60

Here's the next entry for you.
Fill in reported Percentage inhibition of kinase enzyme activity for this entry: CC#CC(=O)N1CCC[C@H]1c1nc(-c2ccc(C(=O)Nc3ccccn3)cc2)c2c(N)nccn12 [acalabrutinib]
5.25

====

target: RET (Homo sapiens); construct: purchased Carna Biosciences; test: Kinase panel profiling at 1 µmol/L (mobility shift assay, Carna); assay type: biochemical; conditions: 1 µmol/L of BTK inhibitor
Sequence (P07949 29-1114): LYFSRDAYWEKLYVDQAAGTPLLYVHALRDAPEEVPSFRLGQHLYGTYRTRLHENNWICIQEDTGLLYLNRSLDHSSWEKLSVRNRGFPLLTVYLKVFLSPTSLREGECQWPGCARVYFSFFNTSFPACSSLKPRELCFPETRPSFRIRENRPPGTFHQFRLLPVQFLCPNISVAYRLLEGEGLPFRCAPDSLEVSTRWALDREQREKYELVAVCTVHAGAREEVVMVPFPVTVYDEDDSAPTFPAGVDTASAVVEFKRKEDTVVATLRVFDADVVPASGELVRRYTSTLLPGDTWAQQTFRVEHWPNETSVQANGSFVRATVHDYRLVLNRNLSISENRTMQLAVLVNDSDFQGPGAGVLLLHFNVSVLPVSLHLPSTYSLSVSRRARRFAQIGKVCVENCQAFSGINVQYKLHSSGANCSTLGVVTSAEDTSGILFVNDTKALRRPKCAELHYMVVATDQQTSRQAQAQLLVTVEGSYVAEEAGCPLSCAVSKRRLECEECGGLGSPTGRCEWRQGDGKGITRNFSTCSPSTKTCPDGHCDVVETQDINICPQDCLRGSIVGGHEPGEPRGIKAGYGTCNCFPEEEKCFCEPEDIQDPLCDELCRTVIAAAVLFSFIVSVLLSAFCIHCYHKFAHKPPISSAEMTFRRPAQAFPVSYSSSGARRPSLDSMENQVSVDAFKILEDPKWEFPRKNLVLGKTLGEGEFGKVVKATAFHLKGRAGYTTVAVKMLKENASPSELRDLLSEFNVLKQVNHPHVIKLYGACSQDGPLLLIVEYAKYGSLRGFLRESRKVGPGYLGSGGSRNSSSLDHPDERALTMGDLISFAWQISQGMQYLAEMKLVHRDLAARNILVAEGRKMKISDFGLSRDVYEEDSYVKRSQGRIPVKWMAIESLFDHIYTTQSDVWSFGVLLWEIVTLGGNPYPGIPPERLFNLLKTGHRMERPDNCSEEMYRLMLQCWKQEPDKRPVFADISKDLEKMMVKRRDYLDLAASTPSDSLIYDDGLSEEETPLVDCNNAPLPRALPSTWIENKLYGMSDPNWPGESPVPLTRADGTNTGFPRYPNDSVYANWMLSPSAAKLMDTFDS
Percentage inhibition of kinase enzyme activity values for the compounds below.
Express your answer in %, writing the number without its unit.

These solved cases illustrate the format of a correct answer.
CC#CC(=O)N1CCC[C@H]1c1nc(-c2ccc(C(=O)Nc3ccccn3)cc2)c2c(N)nccn12: 13.72
COc1ccc(F)cc1C(=O)NCc1ccc(-c2nn([C@@H](C)C(F)(F)F)c(N)c2C(N)=O)cc1: 51.77

Please report Percentage inhibition of kinase enzyme activity with RET (Homo sapiens) for item C=CC(=O)N1CCC[C@@H](n2nc(-c3ccc(Oc4ccccc4)cc3)c3c(N)ncnc32)C1 .
87.66

Please report Percentage inhibition of kinase enzyme activity with RET (Homo sapiens) for item O=C(c1ccc(Oc2ccccc2)cc1Cl)c1c[nH]c2ncnc(N[C@@H]3CC[C@@H](CO)OC3)c12 .
98.99

Please report Percentage inhibition of kinase enzyme activity with RET (Homo sapiens) for item C=CC(=O)N1CCC([C@@H]2CCNc3c(C(N)=O)c(-c4ccc(Oc5ccccc5)cc4)nn32)CC1 .
18.89

====

tested on: 5637; assay: Cell viability assay (ATPlite); type: cell-based; details: Homo sapiens; 5637 cell line, 72 hours incubation
quantityName: pIC50
As a rule, pIC50 stands for the negative log10 of the concentration, concentration in M.

Fill in reported pIC50 for this entry: O=C(c1ccc(Oc2ccccc2)cc1Cl)c1c[nH]c2ncnc(N[C@@H]3CC[C@@H](CO)OC3)c12 [nemtabrutinib]
5.46

====

molecular target: MINK (Homo sapiens, UniProt Q8N4C8); construct: purchased Carna Biosciences; assay: Kinase panel profiling at 1 µmol/L (mobility shift assay, Carna); type: biochemical; conditions: 1 µmol/L of BTK inhibitor
Sequence (Q8N4C8 whole entry): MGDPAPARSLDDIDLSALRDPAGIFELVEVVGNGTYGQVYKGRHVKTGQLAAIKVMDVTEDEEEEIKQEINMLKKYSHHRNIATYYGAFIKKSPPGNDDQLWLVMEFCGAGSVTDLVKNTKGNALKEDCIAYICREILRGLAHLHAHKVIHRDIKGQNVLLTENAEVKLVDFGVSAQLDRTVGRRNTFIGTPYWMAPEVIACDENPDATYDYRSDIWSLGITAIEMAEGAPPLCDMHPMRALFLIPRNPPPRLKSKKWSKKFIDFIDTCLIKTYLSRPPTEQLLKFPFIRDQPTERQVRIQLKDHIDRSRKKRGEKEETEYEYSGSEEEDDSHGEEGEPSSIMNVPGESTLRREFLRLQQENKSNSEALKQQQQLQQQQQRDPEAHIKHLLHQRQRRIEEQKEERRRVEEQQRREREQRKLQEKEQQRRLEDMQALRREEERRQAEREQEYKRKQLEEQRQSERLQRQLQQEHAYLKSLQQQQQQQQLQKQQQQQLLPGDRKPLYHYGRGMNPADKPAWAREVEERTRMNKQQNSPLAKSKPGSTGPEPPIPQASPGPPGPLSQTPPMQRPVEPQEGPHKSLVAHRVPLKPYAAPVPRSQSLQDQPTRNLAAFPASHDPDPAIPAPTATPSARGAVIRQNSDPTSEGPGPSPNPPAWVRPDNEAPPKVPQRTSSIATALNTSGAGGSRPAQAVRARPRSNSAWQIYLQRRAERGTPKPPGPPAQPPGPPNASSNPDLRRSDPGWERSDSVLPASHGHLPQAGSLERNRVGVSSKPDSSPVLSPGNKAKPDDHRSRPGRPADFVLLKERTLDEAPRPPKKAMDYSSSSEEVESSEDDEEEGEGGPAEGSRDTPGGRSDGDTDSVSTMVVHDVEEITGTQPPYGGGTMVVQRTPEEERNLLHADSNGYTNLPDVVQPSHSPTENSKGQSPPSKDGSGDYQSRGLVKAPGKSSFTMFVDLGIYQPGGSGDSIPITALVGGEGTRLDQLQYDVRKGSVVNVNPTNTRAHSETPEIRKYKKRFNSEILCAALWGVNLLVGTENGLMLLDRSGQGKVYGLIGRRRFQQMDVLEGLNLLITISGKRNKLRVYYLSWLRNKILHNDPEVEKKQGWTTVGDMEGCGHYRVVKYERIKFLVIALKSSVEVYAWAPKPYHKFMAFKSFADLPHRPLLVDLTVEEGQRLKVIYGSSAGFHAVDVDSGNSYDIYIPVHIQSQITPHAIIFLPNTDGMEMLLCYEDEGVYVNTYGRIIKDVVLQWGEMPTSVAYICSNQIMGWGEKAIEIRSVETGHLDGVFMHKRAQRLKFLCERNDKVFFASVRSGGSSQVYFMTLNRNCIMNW
quantityName: Percentage inhibition of kinase enzyme activity (%)
Express your answer in %, writing the number without its unit.

These solved cases illustrate the format of a correct answer.
CC#CC(=O)N1CCC[C@H]1c1nc(-c2ccc(C(=O)Nc3ccccn3)cc2)c2c(N)nccn12: -1.13
O=C(c1ccc(Oc2ccccc2)cc1Cl)c1c[nH]c2ncnc(N[C@@H]3CC[C@@H](CO)OC3)c12: 46.67
COc1ccc(F)cc1C(=O)NCc1ccc(-c2nn([C@@H](C)C(F)(F)F)c(N)c2C(N)=O)cc1: -0.79

Here's the next entry for you.
Fill in reported Percentage inhibition of kinase enzyme activity for this entry: C=CC(=O)N1CCC[C@@H](n2nc(-c3ccc(Oc4ccccc4)cc3)c3c(N)ncnc32)C1
-6.41

====

System: EoL-1
Assay: Cell viability assay (ATPlite)
Format: cell-based
Conditions: Homo sapiens, EOL1; EoL-1 cell line, 72 hours incubation
Protocol: Intracellular ATP content was used as an indirect readout of cell number using the ATPlite 1Step bioluminescence assay (Revvity, Groningen, the Netherlands). […] After 24 hours of incubation, the starting cell number was determined by adding ATPlite to each well of a control plate and recording luminescence on an Envision multimode reader (Revvity, Waltham, MA, USA) ([4]). […] After incubation for an additional 72 hours, the ATP content was measured in each well using ATPlite. […]
quantityName: IC50 (nM)
Express your answer in nM, writing the number without its unit.

Please report IC50 with EoL-1 for item O=C(c1ccc(Oc2ccccc2)cc1Cl)c1c[nH]c2ncnc(N[C@@H]3CC[C@@H](CO)OC3)c12 .
59

====

target: MEK2 (Homo sapiens, UniProt P36507); construct: purchased Carna Biosciences, Inc. 07-42; test: Kinase enzyme activity assay (ELISA, in-house); format: biochemical; details: 1 mmol/L ATP; read-out: IC50, MEK2
Sequence (P36507 whole entry): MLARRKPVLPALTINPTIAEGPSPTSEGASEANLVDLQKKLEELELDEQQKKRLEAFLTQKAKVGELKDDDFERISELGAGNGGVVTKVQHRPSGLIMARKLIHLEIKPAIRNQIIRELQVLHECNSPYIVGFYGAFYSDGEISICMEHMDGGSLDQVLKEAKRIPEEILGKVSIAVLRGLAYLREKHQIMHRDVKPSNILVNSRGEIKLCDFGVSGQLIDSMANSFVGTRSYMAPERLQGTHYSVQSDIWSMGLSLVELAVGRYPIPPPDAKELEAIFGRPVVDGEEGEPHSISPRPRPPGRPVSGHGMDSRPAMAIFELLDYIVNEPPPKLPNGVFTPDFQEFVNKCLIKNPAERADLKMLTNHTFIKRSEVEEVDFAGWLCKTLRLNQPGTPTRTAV
quantityName: pIC50
As a rule, pIC50 stands for the negative log10 of the concentration, concentration in M.

Fill in reported pIC50 for this entry: O=C(c1ccc(Oc2ccccc2)cc1Cl)c1c[nH]c2ncnc(N[C@@H]3CC[C@@H](CO)OC3)c12 [nemtabrutinib]
6.31

====

Molecular target: EPHA3 (Homo sapiens, UniProt P29320)
Construct: purchased Carna Biosciences
Sequence (P29320 21-983): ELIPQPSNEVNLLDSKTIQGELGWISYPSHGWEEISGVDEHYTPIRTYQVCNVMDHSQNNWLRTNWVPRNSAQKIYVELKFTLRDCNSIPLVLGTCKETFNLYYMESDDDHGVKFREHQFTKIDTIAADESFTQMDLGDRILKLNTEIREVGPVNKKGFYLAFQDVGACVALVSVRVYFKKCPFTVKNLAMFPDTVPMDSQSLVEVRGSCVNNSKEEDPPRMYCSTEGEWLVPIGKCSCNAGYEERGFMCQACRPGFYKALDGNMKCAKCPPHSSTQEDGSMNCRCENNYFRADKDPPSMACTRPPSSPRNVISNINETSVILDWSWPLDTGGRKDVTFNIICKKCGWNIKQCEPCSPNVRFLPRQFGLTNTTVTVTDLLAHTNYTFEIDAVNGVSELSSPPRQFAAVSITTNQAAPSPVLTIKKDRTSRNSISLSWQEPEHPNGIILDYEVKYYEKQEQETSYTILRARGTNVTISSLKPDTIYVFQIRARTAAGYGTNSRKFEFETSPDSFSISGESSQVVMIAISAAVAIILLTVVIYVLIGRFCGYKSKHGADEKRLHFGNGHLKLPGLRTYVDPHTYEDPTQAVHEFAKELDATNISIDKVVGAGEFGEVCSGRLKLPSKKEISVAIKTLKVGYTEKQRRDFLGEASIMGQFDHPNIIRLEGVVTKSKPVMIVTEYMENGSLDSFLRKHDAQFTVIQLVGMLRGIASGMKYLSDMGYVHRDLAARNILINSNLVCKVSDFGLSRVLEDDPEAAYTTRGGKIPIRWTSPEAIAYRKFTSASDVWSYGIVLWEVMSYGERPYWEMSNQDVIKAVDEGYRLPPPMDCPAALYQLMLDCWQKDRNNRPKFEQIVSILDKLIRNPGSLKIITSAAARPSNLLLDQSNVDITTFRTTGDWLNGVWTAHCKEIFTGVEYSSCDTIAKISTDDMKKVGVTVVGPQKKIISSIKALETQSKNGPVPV
Assay: Kinase panel profiling at 1 µmol/L (mobility shift assay, Carna)
Type: biochemical
Conditions: 1 µmol/L of BTK inhibitor
Percentage inhibition of kinase enzyme activity values for the molecules below.

These solved cases illustrate the format of a correct answer.
O=C(c1ccc(Oc2ccccc2)cc1Cl)c1c[nH]c2ncnc(N[C@@H]3CC[C@@H](CO)OC3)c12: 50.57%
COc1ccc(F)cc1C(=O)NCc1ccc(-c2nn([C@@H](C)C(F)(F)F)c(N)c2C(N)=O)cc1: -5.46%
C=CC(=O)N1CCC([C@@H]2CCNc3c(C(N)=O)c(-c4ccc(Oc5ccccc5)cc4)nn32)CC1: -0.20%
CC#CC(=O)N1CCC[C@H]1c1nc(-c2ccc(C(=O)Nc3ccccn3)cc2)c2c(N)nccn12: -2.07%

Here's the next entry for you.
Fill in reported Percentage inhibition of kinase enzyme activity for this entry: C=CC(=O)N1CCC[C@@H](n2nc(-c3ccc(Oc4ccccc4)cc3)c3c(N)ncnc32)C1
3.80%
